- systemTested: Twin-Strep-tagged wild-type mTORC1 (human) (UniProt P42345)
- assayMethodText: SPR; Biacore T200, CM5 chip; Twin-Strep-tagged mTORC1 captured on Strep-Tactin XT; DEPTOR PDZ (305-409) injected 120 s, 300 s dissociation, 1:2 dilution series from 20 µM; 50 mM HEPES pH 7.5, 100 mM NaCl, 1 mM TCEP; equilibrium responses fit to one-site specific binding with a linear non-specific component
pKd: −log10 of the molar value.
propertyLabel: pKd

>>> print(df.to_string())
                                  substance  propertylabel  obsvalue
0  DEPTOR short-linker PDZ, residues 305-409 (from UniProt Q8TB45 305-409) (domain or fragment)            pKd      5.15
